Source of measurements: patent US20230135894A1

assay.system: MK2 (Homo sapiens)
Sequence (P49137 whole entry): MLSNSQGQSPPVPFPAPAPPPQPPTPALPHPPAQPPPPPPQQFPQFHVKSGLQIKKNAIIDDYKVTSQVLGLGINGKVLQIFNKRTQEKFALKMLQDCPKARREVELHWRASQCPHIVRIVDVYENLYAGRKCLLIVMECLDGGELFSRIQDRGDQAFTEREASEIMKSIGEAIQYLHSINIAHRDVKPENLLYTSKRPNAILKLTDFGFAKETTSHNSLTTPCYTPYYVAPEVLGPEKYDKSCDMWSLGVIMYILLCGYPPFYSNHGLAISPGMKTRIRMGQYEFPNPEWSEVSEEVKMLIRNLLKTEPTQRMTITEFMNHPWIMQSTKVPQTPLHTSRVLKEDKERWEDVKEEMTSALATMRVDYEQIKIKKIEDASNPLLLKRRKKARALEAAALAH
assay.details: MK2 degradation in human SW1353 cells (MSD, 24 h)
Assay type: cell-based
Parameters: endogenous in cells; host or cells: SW-1353 (ATCC HTB-94)
condition: read-out: MK2 MSD SW 1353 24 h Dmax %
Experimental: MK2 Degradation in Human SW1353 Cells […] After 3 more washes, the secondary detection antibody (SULFO-Tag anti rabbit antibody R32AB-5) was added at a final concentration of 1 microgram per ml at 25 microlitres per well and shaken at room temperature for 1 hour at 600 rpm. After 3 more washes, the 1×MSD (diluted from 5× concentrate with water) reading buffer was added at 150 microlitres per well and read on the MSD instrument Meso Sector S 600. […]
Below is a list of entries, each paired with its recorded Dmax value.

The cases that follow already have their Dmax on record.
C[C@@H]1CNc2c(sc3ccc4nc(N5CCCN(CCC6CCN(c7ccc8c(c7)n(C)c(=O)n8C7CCC(=O)NC7=O)CC6)CC5)ccc4c23)C(=O)N1 (some centres unmarked) [Compound I-444]: > 75%
C[C@@H]1CNc2c(sc3ccc4nc(N5CC6(CCN(CC7CCN(c8ccc9c(c8)n(C)c(=O)n9C8CCC(=O)NC8=O)CC7)CC6)C5)ccc4c23)C(=O)N1 (some centres unmarked) [Compound I-390]: < 50%
C[C@@H]1CNc2c(sc3ccc4nc(-c5ccc(C6CCN(CC7CCN(c8cccc9c8n(C)c(=O)n9C8CCC(=O)NC8=O)CC7)CC6)nc5)ccc4c23)C(=O)N1 (some centres unmarked) [Compound I-122]: > 75%
Cn1c(=O)n(C2CCC(=O)NC2=O)c2cccc(CCCCN3CC4(CCN(c5ccc6c(c5)Cn5cc(-c7ccc(F)cc7)cc5-c5nccn5-6)C4)C3)c21 (centres unmarked) [Compound I-167]: < 50%

Field: next molecule
Req: What does the record list as Dmax for C[C@@H]1CNc2c(sc3ccc4nc(-c5ccc(N6CCN(CC7CCN(c8ccc9c(c8)n(C)c(=O)n9C8CCC(=O)NC8=O)CC7)CC6)cc5)ccc4c23)C(=O)N1 (some centres unmarked) [Compound I-130] ?
Resp: > 75%
